Tested on: Saccharomyces cerevisiae
Assay: protein stability index of tFT-peptide fusion (C-terminal peptide) (PSI (0-1 scale)); higher = more stable (slower turnover)
Conditions: genetic background: cdc53-1; temperature: 37 C
Measurement label: protein stability index
Numbers only.

>>> endpoint_value("VAGGFWCWGMVG")
0.782
>>> endpoint_value("GGMGLWCCVSVG")
0.678
>>> endpoint_value("RPPSLVFLFLLT")
0.587

For every listed record, write down its protein stability index.
1. LFSVFSLVLFIF
2. KDIFQIYTLYVF

Out:
0.413
0.461

====

System: Saccharomyces cerevisiae
Assay: protein stability index of tFT-peptide fusion (C-terminal peptide) (PSI (0-1 scale)); higher = more stable (slower turnover)
Details: genetic background: wild type; temperature: 37 C
Measurement label: protein stability index
Numbers only.

>>> endpoint_value("YLCFVVSCGVLR")
0.503
>>> endpoint_value("VSWWRGVYVVLF")
0.526
>>> endpoint_value("VVSLAVVGRFLV")
0.263
>>> endpoint_value("GSLFANYNLKLF")
0.211
>>> endpoint_value("PVLPPPLLLCPC")
0.0932
>>> endpoint_value("FFVKGFRLLVFQ")
0.516
>>> endpoint_value("GGRREWCRGGGV")
0.708
>>> endpoint_value("PLLPTPLTAPPP")
0.694
>>> endpoint_value("GSVHLTKERHLV")
0.499
>>> endpoint_value("FVWVVRMLVFVP")
0.3

For every listed record, write down its protein stability index.
1. RLPRILVLVCLF
2. PSIALVRLDVIC
3. HWVRLSSLAFVS
4. KKIKKYTRKLKI
5. SRSYNSPSLYVC
6. FPCRNFMVFFCF
7. CLHFLTWVRICS
8. FIGVLVYICREG

Out:
1: 0.25; 2: 0.443; 3: 0.19; 4: 0.63; 5: 0.109; 6: 0.285; 7: 0.0804; 8: 0.373

Lab book: protein stability index of FFVFPFGLLFLS noted as 0.385

====

Tested on: Saccharomyces cerevisiae
Assay: protein stability index of tFT-peptide fusion (C-terminal peptide) (PSI (0-1 scale)); higher = more stable (slower turnover)
Conditions: genetic background: wild type; temperature: 30 C
I'd appreciate it if you could supply protein stability index values for the items below.
Numbers only.

>>> endpoint_value("KRVTYKRIRSKI")
0.799

For every listed record, write down its protein stability index.
1. RGGPSPAASSRG
2. PSIPRTSTRPTL
3. PRYKQSSFAFKK
4. FNPRIGGDCRSA
5. WHLQYTLIPYEA
6. PTNQHNLEQRPE

Out:
1: 0.725; 2: 0.706; 3: 0.669; 4: 0.678; 5: 0.635; 6: 0.667

For every listed record, write down its protein stability index.
1. TPPHNRERPTVQ
2. EAKKKRIDKKYE
3. HETRGKTEQNWM
4. ASFPPPPAAPPP
5. ALPSALPPLPPP
6. CGSWVAVESLEL
7. FEVAPAPLDQVV
8. APPPPFCHAPTS

Out:
[0.657, 0.776, 0.645, 0.673, 0.723, 0.679, 0.653, 0.637]

====

Test system: Saccharomyces cerevisiae
Assay: protein stability index of tFT-peptide fusion in wild type (PSI (0-1 scale)); higher = more stable (slower turnover)
Settings: genetic background: wild type
Measurement label: protein stability index
One number for each entry.

>>> endpoint_value("LVVYLSCVMCIN")
0.0111

For every listed record, write down its protein stability index.
1. PSLAASFWRVVH
2. CTSCGYYFRTNN
3. RMIQPLPVQFLN
4. PSLAASFWRVVI
5. PDKRNHLIKLRN
6. RVTRLDAICFRI
7. CLVSLAILLFFR
8. CLVSLPILLFFE

Out:
1. 0.448
2. 0.283
3. 0.045
4. 0.263
5. 0.623
6. 0.656
7. 0.248
8. 0.454

Lab book: protein stability index of PSYAASFWRVVG noted as 0.131
